Entry source: patent US6537803B1

- assayed_system: human EAAT2 (Homo sapiens, UniProt P43004)
- Construct: expressed in transfected cells; host or cells: COS-7 cells, pCMV5 construct, DEAE-dextran transient transfection
- procedure_details: inhibition of [3H]-L-glutamate uptake in COS-7 cells expressing EAAT2
- Format: cell-based
Hi there, I'd appreciate the recorded Ki for every entry that follows.
One number for each entry, in µM.

CC(C)[C@H]1CN[C@H](C(=O)O)[C@H]1CC(=O)O [DHK, dihydrokainate]; 23

-- ask Fill in Ki for record N[C@@H](COS(=O)(=O)O)C(=O)O [SOS, L-serine-O-sulfate]
-- reply 1160

----------
- assayed_system: human EAAT1 (Homo sapiens)
- Construct: expressed in transfected cells; host or cells: COS-7 cells, pCMV5 construct, DEAE-dextran transient transfection
- Sequence (P43003 whole entry): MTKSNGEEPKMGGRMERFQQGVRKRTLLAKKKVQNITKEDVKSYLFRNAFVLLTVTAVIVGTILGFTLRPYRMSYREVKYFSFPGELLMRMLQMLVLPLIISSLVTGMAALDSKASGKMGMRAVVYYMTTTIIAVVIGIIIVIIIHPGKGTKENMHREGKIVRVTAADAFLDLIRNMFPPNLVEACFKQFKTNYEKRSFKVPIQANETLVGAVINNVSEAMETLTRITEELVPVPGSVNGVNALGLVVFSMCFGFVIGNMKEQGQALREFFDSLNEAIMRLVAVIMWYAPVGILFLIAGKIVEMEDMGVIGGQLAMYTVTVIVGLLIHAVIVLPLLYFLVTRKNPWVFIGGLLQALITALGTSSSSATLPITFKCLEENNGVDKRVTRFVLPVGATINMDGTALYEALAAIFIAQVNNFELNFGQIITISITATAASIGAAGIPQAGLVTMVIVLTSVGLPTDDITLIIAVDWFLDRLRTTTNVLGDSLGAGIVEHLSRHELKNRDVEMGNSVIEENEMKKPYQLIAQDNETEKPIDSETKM
- procedure_details: inhibition of [3H]-L-glutamate uptake in COS-7 cells expressing EAAT1
- Assay type: cell-based
- run_parameters: COS cell culture
Residues, ends and D or L forms follow the SMILES beside them.
endpoint_label: inhibition of glutamate uptake (in words), EAAT1

For orientation, consider the following solved cases.
NC1(C(=O)O)CC(C(=O)O)C1 (stereo not drawn) [cis-1-aminocyclobutane-1,3-dicarboxylate]; ineffective
N[C@@H](CSS(=O)(=O)O)C(=O)O [S-sulfo-L-cysteine]; ineffective
N[C@@H](Cn1oc(=O)[nH]c1=O)C(=O)O [quisqualate]; ineffective
CC(=O)N[C@@H](CC(=O)O)C(=O)N[C@@H](CCC(=O)O)C(=O)O [N-acetyl aspartylglutamate] (Ac-Asp-Glu-OH); ineffective
CN[C@H](CC(=O)O)C(=O)O [N-methyl-D-aspartate]; ineffective

-- ask Fill in inhibition of glutamate uptake (in words), EAAT1 for record O=C1CC[C@@H](C(=O)O)N1 [L-pyroglutamicacid]
-- reply ineffective
